The origin of these recorded values is patent US8871753B2.

# measurement-target: human JAK3 (a.a. 781-1124) (Homo sapiens, UniProt P52333)
# Construct: JAK3 (a.a. 781-1124); His tag (N); made in house; host or cells: insect cells (baculovirus)
# Sequence (P52333 781-1124): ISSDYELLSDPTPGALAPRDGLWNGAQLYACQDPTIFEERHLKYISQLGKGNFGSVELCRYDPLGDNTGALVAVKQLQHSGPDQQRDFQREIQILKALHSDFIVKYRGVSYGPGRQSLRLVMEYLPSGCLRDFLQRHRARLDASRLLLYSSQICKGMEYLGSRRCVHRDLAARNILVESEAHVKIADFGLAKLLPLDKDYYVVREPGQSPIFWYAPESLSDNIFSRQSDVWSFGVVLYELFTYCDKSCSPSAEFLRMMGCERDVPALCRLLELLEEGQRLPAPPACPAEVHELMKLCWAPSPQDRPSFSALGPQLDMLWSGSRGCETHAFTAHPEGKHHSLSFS
# experimental-protocol: In vitro JAK kinase assay (HTRF, phosphorylation of a biotinylated peptide), JAK3
# Type: biochemical
# condition-label: method AA1 (3 μM ATP) or AA2 (1000 μM ATP), not stated per value
Structures can show the parent of a compound that is named as a salt.
measured-endpoint: IC50 (µM)

A selection of reference data follows.
{"compound": "CC(C)C(=O)N1CCC(CC(=O)Nc2ccc3cc2CCc2cncc(c2)Nc2ncc(Cl)c(n2)N3)CC1 [Example A103, bis(trifluoroacetate)]", "measurement-target": "human JAK3 (a.a. 781-1124) (Homo sapiens, UniProt P52333)", "recorded-measurement": 0.156}
{"compound": "O=C(CC1CCN(C(=O)c2nccs2)CC1)Nc1ccc2cc1CCc1cncc(c1)Nc1ncc(Cl)c(n1)N2 [Example A133, bis(trifluoroacetate)]", "measurement-target": "human JAK3 (a.a. 781-1124) (Homo sapiens, UniProt P52333)", "recorded-measurement": 0.073}
{"compound": "CC(=O)N1CCN(CC(=O)Nc2ccc3cc2CCc2cncc(c2)Nc2ncc(Cl)c(n2)N3)CC1 [Example A127, tris(trifluoroacetate)]", "measurement-target": "human JAK3 (a.a. 781-1124) (Homo sapiens, UniProt P52333)", "recorded-measurement": 0.35}

(A) Clc1cnc2nc1Nc1cccc(c1)CCCc1cccc(c1)N2
(B) COc1cc2cc(c1)Nc1nc(ncc1Cl)Nc1cccc(c1)CC2 [Example A21, trifluoroacetate]
(C) NS(=O)(=O)N1CCC(C(=O)Nc2ccc3cc2CCc2cccc(c2)Nc2ncc(Cl)c(n2)N3)CC1 [Example A72, trifluoroacetate]
Put the compounds in ascending order of IC50. I'd appreciate it if you listed the labels in the requested order.
C, B, A

(I) CC(=O)N1CCC(CC(=O)Nc2ccc3cc2CCc2cccc(c2)Nc2ncc(Cl)c(n2)N3)CC1 [Example A55, trifluoroacetate]
(II) C[N+]1(C)CCC(CC(=O)Nc2ccc3cc2CCc2cccc(c2)Nc2ncc(Cl)c(n2)N3)CC1
(III) Cc1cc(C(=O)N2CC[C@@H](C(=O)Nc3ccc4cc3CCc3cccc(c3)Nc3ncc(Cl)c(n3)N4)C2)no1
(IV) Cc1cc(C(=O)N2CCCC(C(=O)Nc3ccc4cc3CCc3cccc(c3)Nc3ncc(Cl)c(n3)N4)C2)no1 (stereo not shown) [Example A121, trifluoroacetate]
Sort by IC50, descending. I'd appreciate it if you listed the labels in the requested order.
II, I, IV, III
(II: 0.298 µM, I: 0.054 µM, IV: 0.011 µM, III: 0.0073 µM)

(1) N#CCC(=O)Nc1ccc2cc1CCc1cccc(c1)Nc1ncc(Cl)c(n1)N2 [Example A65, trifluoroacetate]
(2) O=C(CN1CCNCC1)Nc1ccc2cc1CCc1cccc(c1)Nc1ncc(Cl)c(n1)N2 [Example A114, tris(trifluoroacetate)]
Between the entries labelled 1 and 2 , which has a larger IC50 value on record? In your reply, give the label of the chosen option.
2

====

# measurement-target: human JAK3 (a.a. 781-1124) (Homo sapiens)
# Construct: JAK3 (a.a. 781-1124); His tag (N); made in house; host or cells: insect cells (baculovirus)
# experimental-protocol: In vitro JAK kinase assay (HTRF, phosphorylation of a biotinylated peptide), JAK3
# Format: biochemical
# condition-label: Table D1
Structures can show the parent of a compound that is named as a salt.
measured-endpoint: IC50 (nM)

A selection of reference data follows.
{"molecule": "O=c1[nH]c2cc3cc(c2o1)CCc1cccc(c1)Nc1ncc(Cl)c(n1)N3 [Example D184]", "measurement-target": "human JAK3 (a.a. 781-1124) (Homo sapiens)", "recorded-measurement": 21}
{"molecule": "COC(=O)c1cc2cc(c1)OCCSc1cccc(c1)Nc1nc(ncc1Cl)N2 [Example D43, trifluoroacetate]", "measurement-target": "human JAK3 (a.a. 781-1124) (Homo sapiens)", "recorded-measurement": 66}

(a) O=C(C[C@@H]1CCCN(C(=O)Nc2ccccc2)C1)Nc1ccc2cc1CCc1cccc(c1)Nc1ncc(Cl)c(n1)N2 [Example D196, trifluoroacetate]
(b) O=C(C[C@H]1CCCNC1)Nc1ccc2cc1CCc1cccc(c1)Nc1ncc(Cl)c(n1)N2 [Example D193]
Between the entries labeled a and b , whose measured IC50 is lower? In your reply, give the label of the chosen option.
b
(b: 32 nM, a: 57 nM)

====

# measurement-target: human JAK2 (a.a. 828-1132) (Homo sapiens)
# Construct: JAK2 (a.a. 828-1132); His tag (N); made in house; host or cells: insect cells (baculovirus)
# Sequence (O60674 828-1132): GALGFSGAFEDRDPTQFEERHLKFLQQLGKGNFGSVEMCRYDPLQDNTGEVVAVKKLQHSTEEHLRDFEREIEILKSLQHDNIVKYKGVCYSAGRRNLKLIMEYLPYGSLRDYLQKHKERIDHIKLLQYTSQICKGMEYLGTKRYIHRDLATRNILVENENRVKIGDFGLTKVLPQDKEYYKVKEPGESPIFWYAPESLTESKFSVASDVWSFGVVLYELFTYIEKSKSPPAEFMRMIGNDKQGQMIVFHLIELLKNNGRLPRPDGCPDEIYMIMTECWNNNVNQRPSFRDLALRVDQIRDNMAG
# experimental-protocol: In vitro JAK kinase assay (HTRF, phosphorylation of a biotinylated peptide), JAK2
# Format: biochemical
# condition-label: Table D1
measured-endpoint: IC50 (µM)

{"compound": "O=C(Nc1cccnc1)N1CCC(CCOc2ccc3cc2CCc2cncc(c2)Nc2ncc(Cl)c(n2)N3)CC1 [Example D182, tris(trifluoroacetate)]", "recorded-measurement": 0.18}
{"compound": "O=C(C[C@@H]1CCN(C(=O)c2cn[nH]c2)C1)Nc1ccc2cc1CCc1cncc(c1)Nc1ncc(Cl)c(n1)N2 [Example D133, bis(trifluoroacetate)]", "recorded-measurement": 0.9}
{"compound": "CC(=O)N1CCC(CCNc2ccc3cc2CCc2cncc(c2)Nc2ncc(Cl)c(n2)N3)CC1 [Example D219, tris(trifluoroacetate)]", "recorded-measurement": 0.049}
{"compound": "N#CC1(C(=O)N2CCN(C(=O)COc3ccc4cc3CCc3cncc(c3)Nc3ncc(Cl)c(n3)N4)CC2)CC1 [Example D267, bis(trifluoroacetate)]", "recorded-measurement": 0.3}

(a) Cn1ccc(C(=O)N2CC[C@H](CC(=O)Nc3ccc4cc3CCc3cncc(c3)Nc3ncc(Cl)c(n3)N4)C2)n1 [Example D106, bis(trifluoroacetate)]
(b) COC(=O)N1CCN(C(=O)COc2ccc3cc2CCc2cncc(c2)Nc2ncc(Cl)c(n2)N3)CC1 [Example D261, bis(trifluoroacetate)]
(c) O=C(c1ccccc1)N1CCN(c2ccc3cc2CCc2cccc(c2)Nc2ncc(Cl)c(n2)N3)CC1 [Example D94, bis(trifluoroacetate)]
(d) O=C(C[C@H]1CCN(c2nc3cccnc3o2)C1)Nc1ccc2cc1CCc1cncc(c1)Nc1ncc(Cl)c(n1)N2 [Example D139, tris(trifluoroacetate)]
(e) CC(=O)N1CCC[C@@H](CC(=O)Nc2ccc3cc2CCc2cncc(c2)Nc2ncc(Cl)c(n2)N3)C1 [Example D204, bis(trifluoroacetate)]
Sort by IC50, descending. I'd appreciate it if you listed the labels in the requested order.
a, d, b, c, e

====

# measurement-target: human JAK2 (a.a. 828-1132) (Homo sapiens)
# Construct: JAK2 (a.a. 828-1132); His tag (N); made in house; host or cells: insect cells (baculovirus)
# experimental-protocol: In vitro JAK kinase assay (HTRF, phosphorylation of a biotinylated peptide), JAK2
# Type: biochemical
# condition-label: Table D1
pIC50: −log10 of the molar value. Structures can show the parent of a compound that is named as a salt.
measured-endpoint: pIC50

A selection of reference data follows.
{"compound": "N#Cc1ccc(NC(=O)N2CC[C@H](CC(=O)Nc3ccc4cc3CCc3cncc(c3)Nc3ncc(Cl)c(n3)N4)C2)cc1 [Example D98, bis(trifluoroacetate)]", "pIC50": 6.91}
{"compound": "COc1ccccc1N1CCN(C(=O)COc2ccc3cc2CCc2cncc(c2)Nc2ncc(Cl)c(n2)N3)CC1 [Example D241, tris(trifluoroacetate)]", "pIC50": 6.74}
{"compound": "CS(=O)(=O)c1ccc(-c2cc3cc(c2)Nc2ncc(Cl)c(n2)Nc2cccc(c2)OCC3)cc1 [Example D29, trifluoroacetate]", "pIC50": 9.30}
{"compound": "O=C(COc1ccc2cc1CCc1cncc(c1)Nc1ncc(Cl)c(n1)N2)N1CCN(C(=O)c2ccc(F)cc2F)CC1 [Example D259, bis(trifluoroacetate)]", "pIC50": 7.43}
{"compound": "O=C(COc1ccc2cc1CCc1cncc(c1)Nc1ncc(Cl)c(n1)N2)N1CCN(Cc2cccnc2)CC1 [Example D255, tris(trifluoroacetate)]", "pIC50": 6.65}
{"compound": "Cn1cc(C(=O)N2CC[C@H](CC(=O)Nc3ccc4cc3CCc3cncc(c3)Nc3ncc(Cl)c(n3)N4)C2)cn1 [Example D107, bis(trifluoroacetate)]", "pIC50": 6.73}

(A) CC(=O)N1CCC(COc2ccc3cc2CCc2cncc(c2)Nc2ncc(Cl)c(n2)N3)CC1 [Example D227, bis(trifluoroacetate)]
(B) O=S(=O)(c1ccccc1F)N1CCC(CCNc2ccc3cc2CCc2cncc(c2)Nc2ncc(Cl)c(n2)N3)CC1 [Example D221, tris(trifluoroacetate)]
(C) CS(=O)(=O)N1CCN(c2cc(-c3cc4cc(c3)Nc3ncc(Cl)c(n3)Nc3cccc(c3)OCC4)ccn2)CC1 [Example D36, bis(trifluoroacetate)]
Put the compounds in ascending order of pIC50. I'd appreciate it if you listed the labels in the requested order.
A, B, C
(A: 6.83, B: 7.15, C: 9.40)
